target: T1, Rab8a_(1-176) (human, UniProt P61006 1-176)
T1 sequence: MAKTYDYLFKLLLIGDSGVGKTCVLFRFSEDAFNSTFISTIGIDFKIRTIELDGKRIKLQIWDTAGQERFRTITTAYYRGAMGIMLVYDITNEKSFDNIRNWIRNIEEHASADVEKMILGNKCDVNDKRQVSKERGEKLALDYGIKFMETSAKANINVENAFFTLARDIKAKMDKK
experiment.summary: SEC

>  <binder>
bMERB W970A (domain or fragment) KEEEMKRFCKAQTIQRRLNEIEAALRELEAEGVKLELALRRQSSSPEQQKKLAVGQLLQLVDKKNSLVAEEAELMITVQELNLEEKQWQLDQELRGYMNREENLKTAADRQAEDQVLRKLVDLVNQRDALIRFQEERRLSELALGTGAQG

>  <binding result>
binds

$$$$
>  <binder>
bMERB L977A_V978A (domain or fragment) KEEEMKRFCKAQTIQRRLNEIEAALRELEAEGVKLELALRRQSSSPEQQKKLWVGQLLQAADKKNSLVAEEAELMITVQELNLEEKQWQLDQELRGYMNREENLKTAADRQAEDQVLRKLVDLVNQRDALIRFQEERRLSELALGTGAQG

>  <binding result>
binds

$$$$
